Origin of measurements: PubChem BioAssay (NCI)

Test system: M14 melanoma
Assay Name: NCI-60 one-dose screen, 48 h
Test Parameters: 10 µM unless noted
Compounds without any hit were thinned out: in the full panel of roughly 83,000, 20% have a hit. Active and inactive are the calls of the source. The calls were made as follows: active = growth percent below 10; inactive = the rest.
Write down one outcome, taken from TRUE = active, FALSE = inactive

Worked cases, answers included:
>>> class("CC[C@@]12CC(C(=O)OC)=C3Nc4cc5c(cc4[C@@]34CCN(C[C@H]3O[C@H]31)[C@@H]24)[C@@H]1[C@H](O5)[C@@H](O)[C@@]2(CC)CC(C(=O)OC)=C3Nc4cc(O)ccc4[C@@]34CCN1[C@@H]24")
"TRUE"
>>> class("CC(C)(C)c1cc(-c2cc(-c3ccccc3)[nH]c(=O)c2C#N)cc(C(C)(C)C)c1")
"FALSE"
>>> class("O=C(OCCOCCO)N(c1cccc(Br)c1)c1nc(SCCN2CCOCC2)nc2c1cnn2CC(Cl)c1ccc(Br)cc1 (stereo not drawn)")
"TRUE"
>>> class("C/C(=N\\Nc1ccc(S(N)(=O)=O)cc1)c1cnn(-c2cc(=O)[nH]c3ccc(Br)cc23)c1C")
"FALSE"
>>> class("Cc1ccc2nc(SCc3ccccc3F)n(-c3ccccc3)c(=O)c2c1")
"FALSE"
>>> class("O=C(Nc1ccc(-c2ccc3c(c2)NC(=O)/C3=C\\c2ccc[nH]2)cc1)Nc1ccc(Cl)c(Cl)c1")
"FALSE"

Qu. # outcome recorded in this test, key = C=CC[n+]1cccc2c3ccccc3ccc21
Ans. FALSE

Qu. # outcome recorded in this test, key = C[C@@H](Nc1c(C#N)cnc2ccc(-c3cnc4[nH]ncc4c3)cc12)c1ccccc1
Ans. FALSE

Qu. # outcome recorded in this test, key = O=C(Cc1c(-c2cccc([N+](=O)[O-])c2)n(-c2ncnc3c2c(-c2ccccc2)c(-c2ccccc2)n3Cc2ccccc2)[nH]c1=O)c1ccc(Cl)c(Cl)c1
Ans. FALSE

Qu. # outcome recorded in this test, key = Cc1ccc(C(=O)Nc2cc(-c3ccncc3)cc(C(F)(F)F)c2)cc1C#Cc1cnc2cccnn12
Ans. TRUE

Qu. # outcome recorded in this test, key = COc1cc(CNC(=O)C[C@H](C)CCC=C(C)C)ccc1OCc1cn(-c2cccc(C(F)(F)F)c2)nn1
Ans. FALSE

Qu. # outcome recorded in this test, key = Cc1ccc2c(c1)nc(-c1ccccc1)n2CC(=O)N=Nc1c(O)[nH]c2ccc(Cl)cc12
Ans. TRUE

Qu. # outcome recorded in this test, key = COc1ccc2[nH]c(=O)c(CSc3ccccc3Nc3nccc(-c4ccc(Cl)cc4)n3)cc2c1
Ans. FALSE

Qu. # outcome recorded in this test, key = N#Cc1ccc(C(=O)NNC(=O)CSc2nc3sc4c(c3c(=O)n2-c2ccc(Cl)cc2)CCCC4)cc1
Ans. FALSE

Qu. # outcome recorded in this test, key = O=C(NNC(=S)NC(=O)c1ccccc1)c1ccc(OCc2nc3ccc(Cl)cc3[nH]2)cc1
Ans. TRUE

Qu. # outcome recorded in this test, key = O=C(N/N=C/c1ccc(B(O)O)s1)c1[nH]c2ccc(Br)cc2c1-c1ccccc1
Ans. TRUE

Qu. # outcome recorded in this test, key = COc1c2c(cc3c1C(CCc1ccccc1)N(C)CC3)OCO2 (stereo not drawn)
Ans. TRUE

Qu. # outcome recorded in this test, key = Cn1ncc2c(N)nc(Oc3ccccc3-c3ccccc3)nc21
Ans. FALSE
